Recorded values, source patent US20250382376A1.

target of assay: T1, extracellular domain of human CD73 protein, C-terminus polyhistidine-tagged (human, UniProt P21589 27-547)
T1 construct: also the immunogen; also called CD73-ECD; human CD73-ECD
T1 sequence: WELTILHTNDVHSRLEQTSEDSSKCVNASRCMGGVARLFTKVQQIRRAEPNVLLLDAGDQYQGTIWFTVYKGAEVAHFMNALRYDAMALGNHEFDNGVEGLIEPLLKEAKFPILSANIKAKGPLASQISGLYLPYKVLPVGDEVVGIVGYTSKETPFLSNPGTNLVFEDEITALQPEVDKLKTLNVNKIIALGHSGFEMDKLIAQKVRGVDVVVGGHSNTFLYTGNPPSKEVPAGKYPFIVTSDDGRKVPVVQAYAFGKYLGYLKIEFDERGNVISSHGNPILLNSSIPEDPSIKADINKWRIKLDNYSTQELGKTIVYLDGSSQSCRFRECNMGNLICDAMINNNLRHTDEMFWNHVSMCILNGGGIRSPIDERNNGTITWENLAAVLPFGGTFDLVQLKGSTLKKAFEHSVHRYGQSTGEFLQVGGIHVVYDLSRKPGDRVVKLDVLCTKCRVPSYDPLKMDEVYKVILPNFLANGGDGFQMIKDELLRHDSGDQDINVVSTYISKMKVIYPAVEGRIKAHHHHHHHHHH
assay info: ELISA on CD73-ECD, 4 µL supernatant of antibody expression, first of two readings; PBS 0.19, 0.18

[
  {
    "binder": "chimeric nanobody 5-E11 (Fc fusion, Human-alpaca chimeric antibody (VHH on hIgG1 Fc); Only the VHH is tied to the tested molecule; also called original antibody 5-E11) VHH: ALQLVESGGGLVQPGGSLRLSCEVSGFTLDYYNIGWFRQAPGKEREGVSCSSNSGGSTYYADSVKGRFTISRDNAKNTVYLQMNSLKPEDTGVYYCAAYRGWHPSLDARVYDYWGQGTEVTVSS",
    "ELISA reading (not named on the sheet)": 4.23
  },
  {
    "binder": "5-E11 derived antibody 5-E11AS (VHH, not shown: a dimerising Fc or GST) VHH: ALQLVESGGGLVQPGGSLRLSCEVSGFTLDYYNIGWFRQAPGKEREGVSCSSASGGSTYYADSVKGRFTISRDNAKNTVYLQMNSLKPEDTGVYYCAAYRGWHPSLDARVYDYWGQGTEVTVSS",
    "ELISA reading (not named on the sheet)": 4.25
  },
  {
    "binder": "5-E11 derived antibody 5-E11GS (VHH, not shown: a dimerising Fc or GST) VHH: ALQLVESGGGLVQPGGSLRLSCEVSGFTLDYYNIGWFRQAPGKEREGVSCSSGSGGSTYYADSVKGRFTISRDNAKNTVYLQMNSLKPEDTGVYYCAAYRGWHPSLDARVYDYWGQGTEVTVSS",
    "ELISA reading (not named on the sheet)": 4.22
  },
  {
    "binder": "5-E11 derived antibody 5-E11QS (VHH, not shown: a dimerising Fc or GST) VHH: ALQLVESGGGLVQPGGSLRLSCEVSGFTLDYYNIGWFRQAPGKEREGVSCSSQSGGSTYYADSVKGRFTISRDNAKNTVYLQMNSLKPEDTGVYYCAAYRGWHPSLDARVYDYWGQGTEVTVSS",
    "ELISA reading (not named on the sheet)": 4.23
  }
]
